Hi! I'm sharing some Ki results obtained with mu opioid receptor (Homo sapiens, UniProt P35372).
Sequence (P35372 whole entry): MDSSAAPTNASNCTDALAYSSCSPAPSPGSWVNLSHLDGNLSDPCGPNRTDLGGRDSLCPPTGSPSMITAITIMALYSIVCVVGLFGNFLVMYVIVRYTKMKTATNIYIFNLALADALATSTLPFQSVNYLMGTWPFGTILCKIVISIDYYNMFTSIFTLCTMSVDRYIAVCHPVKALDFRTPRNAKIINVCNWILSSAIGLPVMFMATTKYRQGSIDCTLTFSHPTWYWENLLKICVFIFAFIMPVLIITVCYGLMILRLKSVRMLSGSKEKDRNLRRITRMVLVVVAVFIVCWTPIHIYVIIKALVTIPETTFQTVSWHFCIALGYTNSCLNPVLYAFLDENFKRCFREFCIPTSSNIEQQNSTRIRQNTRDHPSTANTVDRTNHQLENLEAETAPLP
Structures can show the parent of a compound that is named as a salt.
ENDPOINT_LABEL: Ki (nM)

{"COMPOUND": "CNCCCNCC(O)CN1CN(c2ccc(F)cc2)C2(CCN(CC3CCC4CC3C4(C)C)CC2)C1=O (mixture of isomers) [compound 664]", "SYSTEM_UNDER_TEST": "mu opioid receptor (Homo sapiens, UniProt P35372)", "ENDPOINT_LABEL": "Ki", "TEST_RESULT": 260}
{"COMPOUND": "Cc1cccc2cccc(CN3CCC4(CC3)C(=O)N(C[C@H](O)CN3CC[C@@H](NC(=O)OC(C)(C)C)C3)CN4c3ccc(F)cc3)c12 [compound 710]", "SYSTEM_UNDER_TEST": "mu opioid receptor (Homo sapiens, UniProt P35372)", "ENDPOINT_LABEL": "Ki", "TEST_RESULT": 1090}
{"COMPOUND": "CNCCCNC[C@@H](O)CN1CN(c2ccc(F)cc2)C2(CCN(Cc3cccc4cccc(C)c34)CC2)C1=O [Compound #656]", "SYSTEM_UNDER_TEST": "mu opioid receptor (Homo sapiens, UniProt P35372)", "ENDPOINT_LABEL": "Ki", "TEST_RESULT": 1520}
{"COMPOUND": "CNC[C@@H](O)CN1CN(c2ccc(F)cc2)C2(CCN(Cc3cccc4cccc(C)c34)CC2)C1=O [Compound #660]", "SYSTEM_UNDER_TEST": "mu opioid receptor (Homo sapiens, UniProt P35372)", "ENDPOINT_LABEL": "Ki", "TEST_RESULT": 870}
{"COMPOUND": "Cc1cccc2cccc(CN3CCC4(CC3)C(=O)N(C[C@H](O)CNCCCN(C)C)CN4c3ccc(F)cc3)c12 [Compound #666]", "SYSTEM_UNDER_TEST": "mu opioid receptor (Homo sapiens, UniProt P35372)", "ENDPOINT_LABEL": "Ki", "TEST_RESULT": 2590}
{"COMPOUND": "NC[C@@H](O)CN1CN(c2ccccc2)C2(CCN([C@H]3CC[C@@H]4CCCc5cccc3c54)CC2)C1=O [Compound #640, dihydrochloride]", "SYSTEM_UNDER_TEST": "mu opioid receptor (Homo sapiens, UniProt P35372)", "ENDPOINT_LABEL": "Ki", "TEST_RESULT": 120}
{"COMPOUND": "Cc1cccc2cccc(CN3CCC4(CC3)C(=O)N(C[C@H](O)CN3CCC(O)C3)CN4c3ccc(F)cc3)c12 (stereo partly shown) [compound 712]", "SYSTEM_UNDER_TEST": "mu opioid receptor (Homo sapiens, UniProt P35372)", "ENDPOINT_LABEL": "Ki", "TEST_RESULT": 1950}
{"COMPOUND": "O=C1N(C[C@H](O)CN2C(CO)C(O)C(O)C2CO)CN(c2ccc(F)cc2)C12CCN(C1CCCCCCC1)CC2 (stereo partly shown) [compound 688]", "SYSTEM_UNDER_TEST": "mu opioid receptor (Homo sapiens, UniProt P35372)", "ENDPOINT_LABEL": "Ki", "TEST_RESULT": 110}
{"COMPOUND": "COCCCNC[C@H](O)CN1CN(c2ccc(F)cc2)C2(CCN(Cc3cccc4cccc(C)c34)CC2)C1=O [compound 650]", "SYSTEM_UNDER_TEST": "mu opioid receptor (Homo sapiens, UniProt P35372)", "ENDPOINT_LABEL": "Ki", "TEST_RESULT": 740}
{"COMPOUND": "Cc1cccc2cccc(CN3CCC4(CC3)C(=O)N(C[C@H](O)CNCCCNC(=O)OC(C)(C)C)CN4c3ccc(F)cc3)c12 [compound 665]", "SYSTEM_UNDER_TEST": "mu opioid receptor (Homo sapiens, UniProt P35372)", "ENDPOINT_LABEL": "Ki", "TEST_RESULT": 2710}
